- experimental system: Pantothenate synthetase (Mycobacterium tuberculosis (strain ATCC 25618 / H37Rv)) (UniProt P9WIL5)
- Sequence (P9WIL5 whole entry, looked up): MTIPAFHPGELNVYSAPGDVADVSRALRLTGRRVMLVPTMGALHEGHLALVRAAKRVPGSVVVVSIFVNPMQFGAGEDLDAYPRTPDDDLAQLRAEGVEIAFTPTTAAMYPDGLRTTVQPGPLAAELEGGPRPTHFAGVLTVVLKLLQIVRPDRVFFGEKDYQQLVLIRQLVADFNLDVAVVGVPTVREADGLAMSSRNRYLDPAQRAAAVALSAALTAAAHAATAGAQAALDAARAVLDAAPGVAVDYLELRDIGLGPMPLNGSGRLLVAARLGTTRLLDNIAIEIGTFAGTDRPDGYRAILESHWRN
- assay summary: Coupled enzyme confirmation of inhibitors against recombinant Mtb PanC (AID 375);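 further: 0% = full reaction with vehicle and 100% = no enzyme background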
- stated conditions: coupled enzyme assay; at 10 µM, stronger effect = higher value
Calls of active or inactive are those of the source. How the calls were made is not given here.
observation type: inhibition

Example compounds with recorded inhibition:
compound | assay value
O=C(C1CC1)N(Cc1ccco1)c1nc(-c2ccccc2)cs1 | 1% (inactive)
COc1ccccc1C(=O)Nc1ccc(S(=O)(=O)N2CCOCC2)cc1 | 6% (inactive)
Cc1ccc(-c2nc(=S)c3c(n2Cc2ccco2)CCCC3)cc1 | 0% (inactive)
O=C(NCCN1CCCC1)C1COc2ccccc2O1 (stereo unspecified) | 3% (inactive)
CCOc1ccc(S(=O)(=O)N(C)C)cc1-c1nc2c(C(C)(C)C)nn(C)c2c(=O)[nH]1 | 0% (inactive)

Let us examine a further case.
// inhibition lookup, key: COC(=O)c1cc(OC)c(OC)cc1NC(=O)CCC1CCCC1
0% (inactive)
